- TARGET_OF_ASSAY: human recombinant P2X7 receptor (Homo sapiens (Human), UniProt Q99572)
- Sequence (Q99572 whole entry): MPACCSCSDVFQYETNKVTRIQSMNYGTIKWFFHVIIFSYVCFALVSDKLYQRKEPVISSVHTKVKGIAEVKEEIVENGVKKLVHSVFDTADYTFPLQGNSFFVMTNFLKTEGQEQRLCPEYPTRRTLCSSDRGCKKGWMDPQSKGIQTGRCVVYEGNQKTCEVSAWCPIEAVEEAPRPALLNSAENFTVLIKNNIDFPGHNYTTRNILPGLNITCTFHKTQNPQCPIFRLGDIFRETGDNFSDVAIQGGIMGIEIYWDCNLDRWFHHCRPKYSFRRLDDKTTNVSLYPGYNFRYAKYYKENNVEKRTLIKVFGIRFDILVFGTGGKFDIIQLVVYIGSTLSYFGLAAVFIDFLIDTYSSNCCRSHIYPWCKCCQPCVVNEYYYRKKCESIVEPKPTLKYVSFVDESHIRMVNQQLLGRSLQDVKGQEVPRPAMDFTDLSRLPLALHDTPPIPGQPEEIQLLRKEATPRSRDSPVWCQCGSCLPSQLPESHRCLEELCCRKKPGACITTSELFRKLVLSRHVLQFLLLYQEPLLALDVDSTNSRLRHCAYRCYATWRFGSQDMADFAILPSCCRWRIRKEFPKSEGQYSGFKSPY
- EXPERIMENT: YO-PRO assay: P2X7 receptor antagonistic activity
- TEST_PARAMETERS: HEK cells expressing human P2X7
- Procedure: The P2X7 receptor antagonistic activity of the compounds of formula (I) is determined in accordance with the following experimental method. Cell Line Generation and YO-PRO Assay Cell line generation was performed in general according to established molecular cloning protocols. Specifically, RNA was extracted from human whole blood using the Qiagen RNeasy kit (Qiagen, CH) according to the manufacturer's instructions. […]
EXPERIMENTAL_READOUT: IC50 (nM)

Completed entries (count: 2):
Prompt: What value of measured IC50 is listed for O=C(Cc1cc(F)c(Cl)cc1Cl)NC1CCOc2ncccc21 (racemic) [Example 57] ?
Response: 1470

Prompt: Entry Cc1cc(Cl)cc(Cl)c1CC(=O)NC1COc2nc(Cl)ccc21 (racemic) [Example 144] has what IC50?
Response: 50

(I) CC(=O)c1cccc(CC(=O)NC2COc3ncccc32)c1Cl (racemic) [Example 111]
(II) O=C(Cc1c(F)cccc1C(F)(F)F)NC1COc2ncccc21 (racemic) [Example 68]
(III) Cc1cc(Cl)cc(Cl)c1CC(=O)NC1COc2ncccc21 (single isomer, unassigned) [Example 6]
(IV) Cc1ccc(OCC(=O)NC2CCOc3ncccc32)c(C)n1 (racemic) [Example 61]
(V) O=C(Cc1cccc(Cl)c1Cl)NC1CCOc2ncccc21 (racemic) [Example 54]
Prompt: Arrange these 5 molecules in increasing order of IC50. // respond by listing labels in the order requested
Response: III, V, I, IV, II

(1) O=C(NC1COc2ncccc21)C(CN1CCCC1)c1ccc(Cl)cc1Cl (stereo not drawn) [Example 81]
(2) O=C(Cc1ccc(C(F)(F)F)cc1Cl)NC1COc2ncccc21 (racemic) [Example 88]
(3) CC(C(=O)NC1COc2ncccc21)c1ccc(Cl)cc1Cl (single isomer, unassigned) [Example 95]
Prompt: Sort entries by IC50 from minimum to maximum value. Would you mind listing the labels in the order asked for?
Response: 2, 3, 1
(2: 72 nM, 3: 104 nM, 1: 1970 nM)

(1) O=C(Cc1ccc(Oc2ccccc2)cc1)NC1COc2ncccc21 (racemic) [Example 36]
(2) O=C(Cc1c(F)cc(Cl)cc1Cl)NC1COc2ncccc21 (racemic) [Example 76]
Prompt: Form: Entry with minimum IC50 (choose one): 1 / 2 Write down the label attached to your selection.
Response: 2

---

- TARGET_OF_ASSAY: human recombinant P2X7 receptor (Homo sapiens (Human), UniProt Q99572)
- EXPERIMENT: YO-PRO assay: P2X7 receptor antagonistic activity
- TEST_PARAMETERS: HEK cells expressing human P2X7
EXPERIMENTAL_READOUT: IC50 (nM)

# example entries with known answers
Prompt: Query for human recombinant P2X7 receptor (Homo sapiens (Human), UniProt Q99572): what IC50 does the record show for O=C(NC1COc2ncccc21)C1CCc2cc(Cl)cc(Cl)c21 (single isomer, unassigned) [Example 147] ?
Response: 40

Prompt: Item: O=C(NC1COc2ncccc21)C1CCc2cc(Cl)cc(Cl)c21 (stereo not shown) [Example 130] Test system: human recombinant P2X7 receptor (Homo sapiens (Human), UniProt Q99572) Read-out: IC50 Value: ?
Response: 137

Prompt: What is its IC50 for human recombinant P2X7 receptor (Homo sapiens (Human), UniProt Q99572)? Entry: O=C(Cc1c(F)cc(F)cc1F)NC1COc2ncccc21 (racemic)
Response: 884

Prompt: I'm curious: which IC50 was measured for Cc1c(Cl)cc(C(F)(F)F)c(CC(=O)NC2COc3ncccc32)c1F (racemic) tested on human recombinant P2X7 receptor (Homo sapiens (Human), UniProt Q99572)?
Response: 1580

(A) CC(C(=O)NC1CCOc2ncccc21)c1ccc(Cl)cc1 (stereo not shown)
(B) O=C(Cc1ccc(F)cc1C(F)(F)F)NC1COc2ncccc21 (racemic)
(C) O=C(Cc1ccc(Cl)cc1C(F)(F)F)NC1COc2ncccc21 (racemic)
(D) Cc1cc(Cl)cc(Cl)c1CC(=O)NC1CCOc2ncccc21 (single isomer, unassigned) [Example 28]
(E) Cc1cc(Cl)cc(Cl)c1CC(=O)NC1COc2nccc(C)c21 (racemic)
Prompt: Write the entries in order, lowest recorded IC50 first. Order the labels as requested and list them.
Response: D, E, C, B, A

(1) O=C(Cc1ccccc1Cl)NC1CCOc2ncccc21 (racemic)
(2) Cc1nccc2c1OCC2NC(=O)Cc1ccc(Cl)cc1Cl (racemic)
(3) O=C(Cc1c(Cl)cc(Cl)cc1C(F)(F)F)NC1COc2ncccc21 (racemic)
Prompt: Reorder: IC50, max to min. Provide the ranking by listing each label in its place in the requested order.
Response: 1, 3, 2

(a) Cc1cc(Cl)cc(Cl)c1CC(=O)NC1COc2ncccc21 (single isomer, unassigned) [Example 7]
(b) O=C(CCc1ccc(Cl)cc1Cl)NC1CCOc2ncccc21 (racemic)
(c) N#Cc1c(F)ccc(CC(=O)NC2COc3ncccc32)c1Cl (racemic)
(d) Cc1ccc2c(n1)OCC2NC(=O)Cc1cccc(C(F)(F)F)c1Cl (racemic)
Prompt: Put the entries in order of IC50, starting with the largest number. Write out the labels following the order that was asked for.
Response: b, c, d, a
